B1: BCL2L13 (parent)
chain: MASSSTVPLGFHYETKYVVLSYLG

Variants of: B1
Assay: protein stability index of a GFP-peptide fusion (GPS, HEK-293T) (PSI 1-6); higher = more stable;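 further: lentivirally expressed fusions sorted by FACS into six bins by GFP to DsRed ratio, PSI derived from sequencing read proportions per bin multiplied by bin number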
Conditions: c terminus: a fixed tail appended
measurement name: protein stability index

• Y22E = 1.85
• Y13F = 3.43
• Y17N = 1.62
• S3G = 3.46
• T6R = 2.82
• M1Q = 1.76
• H12L = 1.49
• H12Y = 3.26
• F11L = 2.36
• V7C = 3.72
• P8N = 3.63
• T15H = 1.91
• F11S = 1.9
• S21F = 3.84
• Y13Q = 1.39
• L9A = 2
• M1S = 2.15
• E14K = 2.72
• Y22H = 3
• S5E = 1.53
• M1T = 2.27
• A2R = 2.37
• Y22G = 2.51
• Y13T = 2.28
• E14H = 1.75
• Y17C = 2.48
• H12T = 1.81
• S3C = 2.59
• M1K = 2.03
• V7Y = 3.3
• S4M = 1.76
• L20W = 2.22
• L23V = 1.93
• G24P = 2.71
• L23E = 1.65
• S3M = 2.72
• T6D = 2.29
• L9M = 2.35
• L20M = 2.37
• V19W = 1.91
• Y17G = 2
• V7G = 2.08
• V18E = 2.02
• M1R = 2.48
• F11W = 1.89
• T15R = 1.36
• Y22M = 2.7
